- System: biotinyl-Leu-oxazolone
- experiment: self-aminoacylation, catalytic enhancement (BLO) (fold over background); higher = more active; k-Seq, kA / k0A0; sequences stand for … in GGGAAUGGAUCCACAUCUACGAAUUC…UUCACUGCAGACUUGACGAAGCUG
This sample holds only a part of the variants without activity.
measured-endpoint: self-aminoacylation
One number for each entry.

The cases that follow already have their self-aminoacylation on record.
AUUACCCUAGUCAUCGGGUGA [Fam2.1 aminoacylation ribozyme variant] :: 8.62
CUACUUCGAACAAUCGGCCUG [Fam1A.1 aminoacylation ribozyme variant] :: 1.36
AAGUGUGCUAAUAGUCGCAAA [Fam3.1 aminoacylation ribozyme variant] :: 1.52

Please look at the items below and tell me self-aminoacylation for each one, in order.
1. AAGUUUGCUAACAGUCGCAAG [Fam3.1 aminoacylation ribozyme variant]
2. AAGUCUUCUAAUAGUCGCAAG [Fam3.1 aminoacylation ribozyme variant]
3. UCACACUUCAAGCAACCGGUC [Fam1B.1 aminoacylation ribozyme variant]
4. AAGUUUGCUAAUAAUCGCGAG [Fam3.1 aminoacylation ribozyme variant]
5. CUACUUCAAACAAUAGGUCAG [Fam1A.1 aminoacylation ribozyme variant]
6. CUUAUUCAAACAAUCGGUCUG [Fam1A.1 aminoacylation ribozyme variant]
7. CUACUUCAAACCAUCGUUCUG [Fam1A.1 aminoacylation ribozyme variant]
8. AUUACCCUGGUCGUAGAGUGA [Fam2.1 aminoacylation ribozyme variant]

Return:
[0.961, 1.83, 0.739, 0.744, 0.577, 0.679, 0.553, 1.84]

Recorded values, source the supplement of paper PMC9233669.
